# Tested on: MDA-MB-468 breast
# testDescription: NCI-60 one-dose screen, 48 h (100 = growth as untreated, 0 = no growth, -100 = all killed)
# measurementConditions: 10 µM unless noted
Compounds without any hit were thinned out: in the full panel of roughly 83,000, 20% have a hit.
Answer Not met if growth is under 30%, and Met if it is 30% or more.

Examples from the recorded data:
molecule	targetDesc	cat
CC(=O)c1nc2ccccc2n1CCNC(N)=O	MDA-MB-468 breast	Met
O=C(Nc1ccc(Cl)cc1)Oc1c(Cl)c(Cl)c(Cl)c(Cl)c1Cl	MDA-MB-468 breast	Met
COc1ccc(/C(C)=C(\c2ccc(Cl)cc2)c2ccc(OCCCN(C)C)cc2)cc1F	MDA-MB-468 breast	Met
CC(=O)n1cc([C@H]2CC[C@H](c3cn(C(C)=O)c4ccccc34)c3c2[nH]c2ccccc32)c2ccccc21	MDA-MB-468 breast	Met
CC1=C2[C@@H](CC1)[C@]1(C)O[C@@](C3CCNCC3)(C[C@H]1OC(=O)CO)[C@H]2OC(=O)/C=C/c1ccccc1	MDA-MB-468 breast	Met
CN1CCN(Cc2ccc(NC(=O)c3cncc(C#Cc4cncc5ncccc45)c3)cc2C(F)(F)F)CC1	MDA-MB-468 breast	Met
CN(C)c1ccc2nc3ccc(=N)cc-3sc2c1	MDA-MB-468 breast	Met
Cc1cc(N(CCCNc2ccnc3cc(Cl)ccc23)Cc2ccccn2)nc(N2CCCC2)n1	MDA-MB-468 breast	Met
COc1ccc(NS(=O)(=O)c2ccc(-c3cnc(C4CC4)o3)cc2)cc1Cl	MDA-MB-468 breast	Not met
CC(=O)c1c(-c2ccc(OC(F)(F)F)cc2)nc2ccccn12	MDA-MB-468 breast	Met

Is it the case that COc1cc(OCc2cccc(-c3ccc(C(O)c4nccs4)cc3)c2C)cc(OC)c1CNCCNC(C)=O (centres undefined) has growth reaching or exceeding 30%?
Met

Is it the case that CCCc1nc2ccccn2c1Nc1ccc(C(=O)NO)cc1 has growth reaching or exceeding 30%?
Met

Is it the case that CNC(=O)c1cc(Oc2ccc3c(c2)sc2nc(-c4ccc(Cl)c(C(F)(F)F)c4)cn23)ccn1 has growth reaching or exceeding 30%?
Not met

Is it the case that O=C(O)[C@@H](Cc1ccc2ccccc2c1)NC(=O)n1c2ccccc2c2ccccc21 has growth reaching or exceeding 30%?
Not met

Is it the case that COc1cc(/C=C/c2cc(/C=C/c3ccc(O)c(OC)c3)n(-c3c(C)cccc3C)c(=O)n2)ccc1O has growth reaching or exceeding 30%?
Not met

Is it the case that COc1ccc(/C=C/c2nc(-c3n[nH]c(=O)n3-c3ccccc3)c3ccccc3n2)cc1 has growth reaching or exceeding 30%?
Met

Is it the case that CCOC(=O)Nc1ccc(-c2nc(-c3cccc(OC)c3)c(-c3ccnc(Br)c3)[nH]2)cc1 has growth reaching or exceeding 30%?
Not met

Is it the case that COc1ccc(S(=O)(=O)n2cc(C(=O)C(=O)Nc3ccncc3)c3ccccc32)cc1F has growth reaching or exceeding 30%?
Not met

====

# Test system: LOX IMVI melanoma
# testDescription: NCI-60 one-dose screen, 48 h (100 = growth as untreated, 0 = no growth, -100 = all killed)
# measurementConditions: 10 µM
The panel holds about 83,000 compounds, 20% with a hit somewhere; the sample as a whole holds those more often. Activity calls are given as the source filed them. How the source made its calls: active means growth percent below 10; inactive means the rest.
experimentalEndpoint: growth

compound	growth
COc1cc(-c2nc3ccc(C)cc3[nH]2)ccc1OCc1nnc(-c2ccccc2Br)o1	71.8% (inactive)

Give a short answer stating reported growth for C#CCOc1cc(N(CC)CC)ccc1C(C(=O)NC(C)(C)C)N(C(=O)C1CCc2cc(F)ccc2O1)c1ccc(F)cc1F (stereo unspecified) .
-5.11% (active)
